EXPERIMENTAL TARGET: T1, PcrV (aa136-257).6xhis (Pseudomonas aeruginosa)
T1 chain: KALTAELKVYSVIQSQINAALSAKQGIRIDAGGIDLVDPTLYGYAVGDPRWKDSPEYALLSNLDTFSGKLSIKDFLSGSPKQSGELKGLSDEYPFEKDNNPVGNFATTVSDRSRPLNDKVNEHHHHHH
ASSAY TEXT: SPR (Biacore T200), mAb captured via anti-human Fc, PcrV injected, 37 C
OBSERVED PROPERTY: pKd
Answers are plain numbers, as −log10 of the molar value.

Example results:
BINDER	pKd
H1H29332P (antibody, V domains shown) VH: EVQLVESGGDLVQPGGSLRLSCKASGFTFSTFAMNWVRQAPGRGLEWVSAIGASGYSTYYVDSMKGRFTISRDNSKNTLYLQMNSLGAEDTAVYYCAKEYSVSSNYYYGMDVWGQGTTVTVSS VL: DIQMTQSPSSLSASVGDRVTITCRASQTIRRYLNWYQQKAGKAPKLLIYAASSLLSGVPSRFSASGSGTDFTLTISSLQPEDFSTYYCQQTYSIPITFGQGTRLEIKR	9.23
H1H29336P (antibody, V domains shown) VH: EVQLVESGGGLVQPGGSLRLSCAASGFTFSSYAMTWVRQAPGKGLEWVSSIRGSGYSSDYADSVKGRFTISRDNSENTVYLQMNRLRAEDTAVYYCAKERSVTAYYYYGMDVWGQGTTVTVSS VL: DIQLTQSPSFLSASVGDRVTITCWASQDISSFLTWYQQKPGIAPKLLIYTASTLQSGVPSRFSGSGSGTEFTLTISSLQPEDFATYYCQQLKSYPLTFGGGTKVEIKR	10.09

-- ask State its pKd for this binder: H1H29329P (antibody, V domains shown) VH: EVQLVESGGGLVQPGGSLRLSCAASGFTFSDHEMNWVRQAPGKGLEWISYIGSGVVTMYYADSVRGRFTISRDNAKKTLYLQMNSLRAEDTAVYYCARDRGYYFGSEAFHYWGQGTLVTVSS VL: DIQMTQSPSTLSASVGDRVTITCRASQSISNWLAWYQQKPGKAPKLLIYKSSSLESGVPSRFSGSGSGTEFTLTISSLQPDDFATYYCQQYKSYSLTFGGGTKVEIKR
-- reply 6.97
